biological target: T1, recombinant mouse TfR-1, His-tagged (Sino Biological 50741-M07H) (mouse, UniProt Q62351 89-763); assay: SPR, His-captured TfR1
T1 construct: bought; His-tagged; also called mTfR1; mTfR-1
T1 sequence (Q62351 89-763 limits assumed, stated change not applied): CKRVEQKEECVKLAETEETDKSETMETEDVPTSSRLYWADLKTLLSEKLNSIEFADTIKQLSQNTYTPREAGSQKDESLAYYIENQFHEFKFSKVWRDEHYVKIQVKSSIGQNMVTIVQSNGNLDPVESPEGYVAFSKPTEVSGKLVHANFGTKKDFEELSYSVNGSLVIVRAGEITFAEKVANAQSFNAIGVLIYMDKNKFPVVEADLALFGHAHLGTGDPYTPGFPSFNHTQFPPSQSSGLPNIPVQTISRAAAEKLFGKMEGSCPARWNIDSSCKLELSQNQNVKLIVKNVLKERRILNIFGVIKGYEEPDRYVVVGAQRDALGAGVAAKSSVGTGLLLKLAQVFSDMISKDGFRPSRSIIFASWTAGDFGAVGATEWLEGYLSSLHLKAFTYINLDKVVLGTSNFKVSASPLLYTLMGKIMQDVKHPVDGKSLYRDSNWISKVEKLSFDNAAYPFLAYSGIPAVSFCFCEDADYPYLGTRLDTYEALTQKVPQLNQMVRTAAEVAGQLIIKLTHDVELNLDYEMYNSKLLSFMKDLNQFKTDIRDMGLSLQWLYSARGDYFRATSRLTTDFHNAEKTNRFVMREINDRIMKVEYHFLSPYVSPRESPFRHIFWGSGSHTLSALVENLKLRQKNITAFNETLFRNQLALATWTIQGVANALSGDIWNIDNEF
Outcome Measure: pKd
Would you please state pKd, meaning minus log10 of the concentration in mol/L, as a bare number?

INSERT INTO assay_data (binder, measured) VALUES
  ('Clone C variant 5 VNAR-hFc (Fc fusion, not shown: a dimerising Fc or GST) ARVDQTPQTITKETGESLTINCVLRDSNCALSSTYWYRKKSGSTNEENISKGGRYVETVNSGSKSFSLRINDLTVEDSGTYRCNVVQSPSYNNYFWCDVYGDGTAVTVN', 9.31);

Switching to the query record.
Please report the recorded pKd for Clone C variant 18 VNAR-hFc (Fc fusion, not shown: a dimerising Fc or GST, also called Clone C v18; Clone C var; 18) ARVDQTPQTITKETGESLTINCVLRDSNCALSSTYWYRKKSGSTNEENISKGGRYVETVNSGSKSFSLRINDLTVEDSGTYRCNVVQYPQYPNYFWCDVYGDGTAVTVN .
9.06
